Sourced from patent US12479830B2

Target: Human α2δ-1 subunit of Cav2.2 calcium channel (Homo sapiens)
Sequence (P54289 25-1103): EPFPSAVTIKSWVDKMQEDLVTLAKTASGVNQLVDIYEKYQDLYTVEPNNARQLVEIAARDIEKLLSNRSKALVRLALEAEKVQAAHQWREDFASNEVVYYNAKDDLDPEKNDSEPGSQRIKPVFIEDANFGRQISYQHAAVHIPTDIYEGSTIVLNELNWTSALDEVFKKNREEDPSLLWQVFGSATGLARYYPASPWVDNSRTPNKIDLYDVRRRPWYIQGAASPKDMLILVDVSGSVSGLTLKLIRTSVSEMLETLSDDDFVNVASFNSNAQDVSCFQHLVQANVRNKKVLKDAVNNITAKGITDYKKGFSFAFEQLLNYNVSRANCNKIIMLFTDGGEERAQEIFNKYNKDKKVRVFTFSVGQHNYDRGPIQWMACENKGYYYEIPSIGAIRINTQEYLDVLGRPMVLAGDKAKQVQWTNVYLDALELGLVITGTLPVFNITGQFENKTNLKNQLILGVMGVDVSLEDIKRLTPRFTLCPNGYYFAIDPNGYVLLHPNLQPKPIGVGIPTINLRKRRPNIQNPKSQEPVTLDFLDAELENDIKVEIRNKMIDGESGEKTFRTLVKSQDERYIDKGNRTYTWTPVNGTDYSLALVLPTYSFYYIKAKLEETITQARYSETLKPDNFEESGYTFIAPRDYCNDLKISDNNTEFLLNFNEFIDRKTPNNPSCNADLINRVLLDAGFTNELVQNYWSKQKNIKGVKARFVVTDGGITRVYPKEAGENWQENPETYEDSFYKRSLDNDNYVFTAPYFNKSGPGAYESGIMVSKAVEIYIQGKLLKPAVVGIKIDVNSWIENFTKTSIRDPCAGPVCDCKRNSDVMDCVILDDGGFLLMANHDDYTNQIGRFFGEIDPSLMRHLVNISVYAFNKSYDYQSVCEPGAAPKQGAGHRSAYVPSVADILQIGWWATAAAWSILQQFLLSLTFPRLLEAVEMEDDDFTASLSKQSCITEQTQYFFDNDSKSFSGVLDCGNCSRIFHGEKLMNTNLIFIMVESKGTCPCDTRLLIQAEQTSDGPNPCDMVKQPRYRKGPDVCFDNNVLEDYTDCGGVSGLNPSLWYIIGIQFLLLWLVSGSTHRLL
Assay: Human α2δ-1 subunit of Cav2.2 calcium channel assay ([3H]-gabapentin binding)
Conditions: binding to the α2δ-1 subunit of voltage-gated calcium channels, expressed as Ki class; + also covers inhibition between 1% and 50%
Experimental: Human α2δ-1 Subunit of Cav2.2 Calcium Channel Assay Human α2δ-1 enriched membranes (2.5 μg) were incubated with 15 nM of radiolabeled [^3H]-Gabapentin in assay buffer containing Hepes-KOH 10 mM. pH 7.4. NSB (non specific binding) was measured by adding 10 μM pregabalin. […] Filter plates were dried at 60° C. for 1 h and 30 μL of scintillation cocktail were added to each well before radioactivity reading. Readings were performed in a Trilux 1450 Microbeta radioactive counter (Perkin Elmer).
pKi: −log10 of the molar value.
property_name: pKi

Worked cases, answers included:
| compound | pKi |
| --- | --- |
| CCC[C@@H](c1nc2cc(F)c(Br)cc2c(=O)n1CC)N1CCNC[C@H](C)C1 | 5.30 to 6.30 |
| CCC[C@@H](c1nc2ccc(Br)cc2c(=O)n1CC)N1CCN(C)C[C@@H](CO)C1 | 5.30 to 6.30 |
| CCCC(c1nc2cc(C)c(Br)cc2c(=O)n1CC)N1CCCN(C)CC1 (centres unmarked) | > 6.30 |

Please report the recorded pKi for `CCC[C@H](c1nc2cc(F)c(F)cc2c(=O)n1CC)N1CCN[C@H](C)CC1` .
> 6.30
